Data provenance is paper PMC2951065.

Items are presented alongside their recorded pIC50.
# Target Entity: PP1 (Oryctolagus cuniculus, UniProt P62139)
# Sequence (P62139 whole entry): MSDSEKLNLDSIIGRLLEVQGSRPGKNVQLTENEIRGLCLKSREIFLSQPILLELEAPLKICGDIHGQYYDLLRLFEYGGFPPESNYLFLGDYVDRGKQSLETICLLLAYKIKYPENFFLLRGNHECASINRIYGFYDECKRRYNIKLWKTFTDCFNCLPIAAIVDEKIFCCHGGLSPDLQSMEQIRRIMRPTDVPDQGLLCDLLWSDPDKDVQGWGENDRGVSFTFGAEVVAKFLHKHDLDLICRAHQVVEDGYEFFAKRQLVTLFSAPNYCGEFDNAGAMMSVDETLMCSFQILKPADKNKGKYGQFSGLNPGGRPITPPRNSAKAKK
pIC50: −log10 of the molar value.

{"Line Notation": "Nc1c(S(=O)(=O)O)cc(Nc2cccc(S(N)(=O)=O)c2)c2c1C(=O)c1ccccc1C2=O", "pIC50": "~4.00"}

// moving on: another record for pIC50
Ask: Quick one: pIC50 for Cc1cc(/N=N/c2ccc(/N=N/c3ccc(O)c(C(=O)O)c3)cc2)c(N)cc1N ?
Result: ~4.00

----------
Sequence of the target: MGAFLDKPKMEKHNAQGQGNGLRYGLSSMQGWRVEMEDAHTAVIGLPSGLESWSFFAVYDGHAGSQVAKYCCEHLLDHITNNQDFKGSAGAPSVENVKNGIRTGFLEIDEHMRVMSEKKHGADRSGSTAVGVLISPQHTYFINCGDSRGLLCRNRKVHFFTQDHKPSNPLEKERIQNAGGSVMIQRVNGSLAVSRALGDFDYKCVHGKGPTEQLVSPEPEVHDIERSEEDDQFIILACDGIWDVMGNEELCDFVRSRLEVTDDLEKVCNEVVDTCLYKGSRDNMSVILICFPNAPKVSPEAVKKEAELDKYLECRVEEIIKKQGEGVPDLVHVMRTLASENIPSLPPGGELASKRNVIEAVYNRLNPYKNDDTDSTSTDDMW
Items are presented alongside their recorded IC50.

{"Molecule": "Cc1cc(/N=N/c2ccc(/N=N/c3ccc(O)c(C(=O)O)c3)cc2)c(N)cc1N [Compound 13]", "IC50": "~100 µM"}

// moving on: another record for IC50
Ask: Quick one: IC50 for Nc1c(S(=O)(=O)O)cc(Nc2cccc(S(N)(=O)=O)c2)c2c1C(=O)c1ccccc1C2=O [Compound 1] ?
Result: ~100 µM
